test: Plasma/serum concentrations of caspofungin in a critically ill patient with morbid obesity; assay type: in vivo; conditions: male, human, plasma, 100 mg/day, three days later, one morbidly obese ICU patient

- COMPOUND: "CC[C@H](C)C[C@H](C)CCCCCCCCC(=O)N[C@H]1C[C@@H](O)[C@@H](NCCN)NC(=O)[C@@H]2[C@@H](O)CCN2C(=O)[C@H]([C@H](O)CCN)NC(=O)[C@H]([C@H](O)[C@@H](O)c2ccc(O)cc2)NC(=O)[C@@H]2C[C@@H](O)CN2C(=O)[C@H]([C@@H](C)O)NC1=O [caspofungin]"
  AUC (µg·h/mL): 140
